# assayText: Cytotoxicity against rat L6 cells assessed as reduction in cell viability after 70 hrs by Alamar blue assay
# Assay type: toxicity
Each entry below carries its recorded IC50 at 70 h.
Numeric only. Scale: µM

The cases that follow already have their IC50 at 70 h on record.
>  <molecularString>
N=C(N)c1ccc2nc(-c3ccc(C(=N)N)o3)[nH]c2c1

>  <IC50 at 70 h [µM]>
150

$$$$
>  <molecularString>
N=C(N)c1ccc(-c2nc3cc(C(=N)N)ccc3[nH]2)cc1

>  <IC50 at 70 h [µM]>
26.3

$$$$
>  <molecularString>
N=C(N)c1ccc2nc(-c3ccc(C(=N)N)s3)[nH]c2c1

>  <IC50 at 70 h [µM]>
26.7

$$$$

Field request: IC50 at 70 h | item: c1cc2nc(-c3ccc(C4=NCCN4)s3)[nH]c2cc1C1=NCCN1
129

What value of IC50 at 70 h has been recorded for this entry: N=C(N)c1ccc(-c2cc3ccc(C(=N)N)cc3[nH]2)cc1
0.86

Source: ChEMBL document CHEMBL3868620
